# System: jimpy (Plp1 jimpy) mouse iPSC-derived oligodendrocyte progenitor cells
# assay_method_text: total cell number (DAPI+ nuclei) relative to DMSO vehicle control (SDs above negative control mean); higher = more surviving cells
# settings: 10 µM; 3 days
Where a name gives a salt, the structure may show the parent alone. Whole data set: some 2,600 compounds, median “total cell number (DAPI+ nuclei) relative to DMSO vehicle control” near -1.4, cut for the lowest 2% near -23. Only a selection was taken, and the lowest values are over-represented in it overall.
Category | rule: reported total cell number within range, see low group (below -10), middle group (-10 to below -2), high group (-2 or more)

Look over these answered cases.
| compound | assigned_category |
| --- | --- |
| CCCCCCCCCCCC1=C(O)C(=O)C=C(O)C1=O | high group |
| NS(=O)(=O)c1ccc(-n2nc(C(F)(F)F)cc2-c2ccc(Cl)cc2)cc1 | high group |
| CC(Cc1ccc(O)c(O)c1)(NN)C(=O)O (stereo not drawn) [S-(-)-Carbidopa] | high group |
| N=C(N)SCCN [2-(2-Aminoethyl)isothiourea dihydrobromide] | middle group |

Assign a bin to CN1CCN(C(=O)c2cc3cc(Cl)ccc3[nH]2)CC1 middle group

Assign a bin to C=C1CC[C@@H]2[C@](C)(CO)[C@H](O)CC[C@@]2(C)[C@@H]1C/C=C1/C(=O)OC[C@H]1O [Andrographolide] middle group

Assign a bin to Cc1[nH]c(/C=C2\C(=O)Nc3ccc(S(=O)(=O)N(C)c4cccc(Cl)c4)cc32)c(C)c1C(=O)N1CCN(C)CC1 low group

Assign a bin to NC/C=C/C(=O)O [(E)-4-amino-2-butenoic acid] high group

Assign a bin to NCC(=O)Nc1ccc(-n2nc(C(F)(F)F)cc2-c2ccc3c(ccc4ccccc43)c2)cc1 low group

Sourced from the supplement of paper PMC6135742
